Reference for the values: patent US9475815B2

Recorded IC50 values for a group of molecules are listed next.
molecular target: UniProt P11362; test: FGFR-1 high ATP kinase assay (TR-FRET)
Sequence (P11362 22-822 limits assumed): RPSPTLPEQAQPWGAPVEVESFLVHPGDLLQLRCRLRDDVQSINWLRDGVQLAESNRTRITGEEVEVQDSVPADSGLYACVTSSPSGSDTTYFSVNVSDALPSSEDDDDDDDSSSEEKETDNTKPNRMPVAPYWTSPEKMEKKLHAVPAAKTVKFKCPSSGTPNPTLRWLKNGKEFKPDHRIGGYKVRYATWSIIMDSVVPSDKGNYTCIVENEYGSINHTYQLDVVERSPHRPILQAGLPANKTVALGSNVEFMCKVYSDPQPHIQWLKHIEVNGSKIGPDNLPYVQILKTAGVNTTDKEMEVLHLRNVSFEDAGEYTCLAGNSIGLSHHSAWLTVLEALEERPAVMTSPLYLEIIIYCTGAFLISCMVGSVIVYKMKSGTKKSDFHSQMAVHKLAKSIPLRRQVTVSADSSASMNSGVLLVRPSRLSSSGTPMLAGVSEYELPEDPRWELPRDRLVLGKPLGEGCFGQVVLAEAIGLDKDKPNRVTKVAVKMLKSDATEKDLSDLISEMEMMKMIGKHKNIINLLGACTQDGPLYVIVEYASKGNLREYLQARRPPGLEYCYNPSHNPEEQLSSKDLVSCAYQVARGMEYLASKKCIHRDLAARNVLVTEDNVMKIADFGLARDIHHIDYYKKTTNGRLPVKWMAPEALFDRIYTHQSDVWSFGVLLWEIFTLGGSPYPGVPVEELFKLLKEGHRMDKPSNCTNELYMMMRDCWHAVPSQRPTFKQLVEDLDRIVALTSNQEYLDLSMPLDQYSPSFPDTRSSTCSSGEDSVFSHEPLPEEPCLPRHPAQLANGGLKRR
Counter-ions that a name gives are not always drawn.
Just the number please, in nM, no unit attached.

Examples with their reported IC50 follow.
{"molecule": "COc1cc(C)cc2cc(-c3cc(CN4CCC5CN(C)CC54)n4ncnc(N)c34)sc12 (stereo not shown) [Example 24]", "IC50 [nM]": 34.1}
{"molecule": "COc1cc(C)cc2cc(-c3cc(CNCCO)n4ncnc(N)c34)sc12 [Example 72]", "IC50 [nM]": 65}
{"molecule": "COc1cc(C)cc2cc(-c3cc(CN4CC5CNCC5C4)n4ncnc(N)c34)sc12 (stereo not shown) [Example 23]", "IC50 [nM]": 19.3}

Now, please, on to the next molecule.
Form field IC50 for item COc1cc(C)cc2cc(-c3cc(COCCN4CCCC4)n4ncnc(N)c34)sc12 [Example 107, hydrochloride] on UniProt P11362: 57.3
